Measured values drawn from paper PMC4673899 for this set.

Molecular target: T1, N-terminally His-tagged catalytic domain of recombinant JMJD2E (residues 1-337) (UniProt B2RXH2 1-337)
T1 sequence (looked up): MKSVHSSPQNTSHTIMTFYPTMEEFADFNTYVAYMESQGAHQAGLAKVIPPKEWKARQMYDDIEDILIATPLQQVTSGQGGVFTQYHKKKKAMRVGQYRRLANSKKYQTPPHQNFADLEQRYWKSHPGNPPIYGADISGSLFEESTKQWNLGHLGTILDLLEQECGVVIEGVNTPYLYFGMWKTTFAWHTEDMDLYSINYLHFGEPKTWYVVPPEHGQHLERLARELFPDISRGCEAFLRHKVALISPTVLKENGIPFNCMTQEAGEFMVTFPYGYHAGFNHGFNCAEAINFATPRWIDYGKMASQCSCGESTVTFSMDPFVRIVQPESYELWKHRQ
Assay: AlphaScreen or HTRF
measured.attribute: IC50 (nM)
Answer format: numeric, nM implied, no suffix.

Exam item: Dear colleague, I am looking for the recorded IC50 of the following binder: ARTKQTARKSTGGKA (peptide, UniProt P68431 2-16, looked up, trimethyl-lysine at K9; C-terminal amide) [unlabelled H3(1-15)K9Me3 peptide]
Marked response: 1200
